# TEST TARGET: LOO10-GFP (Aequorea victoria, UniProt P42212, S30R/Y39N/F64L/S65T/F99S/N105T/Y145F/M153T/V163A/I171V, form not given)
# Sequence (P42212 whole entry S30R/Y39N/F64L/S65T/F99S/N105T/Y145F/M153T/V163A/I171V, form open): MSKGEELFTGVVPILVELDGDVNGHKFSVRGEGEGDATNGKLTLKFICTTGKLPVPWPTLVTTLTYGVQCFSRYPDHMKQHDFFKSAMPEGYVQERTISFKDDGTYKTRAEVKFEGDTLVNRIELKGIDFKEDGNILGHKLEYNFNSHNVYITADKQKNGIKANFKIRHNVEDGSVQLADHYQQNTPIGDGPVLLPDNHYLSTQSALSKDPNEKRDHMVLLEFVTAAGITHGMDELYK
# Format: binding
# CONDITION PARAMETERS: read-out: Kd (dissociation constant between s10 peptide and LOO10-GFP); 50 nM LOO10-GFP, 0-2500 nM peptide, assay buffer pH 8, overnight 4°C, read at 25°C; 390ex/506em (WT, H199Y) or 495ex/520em (T203Y, H199Y/T203Y); quadratic fit; 3 independent measurements
Ends that are not written are not given here.
PROPERTY LABEL: pKd
To interpret pKd, take it as minus log10 of a concentration measured in moles per litre.

NHYLSYQTVLS [T203Y] : 6.82
NYYLSYQTVLS [H199Y/T203Y] : 7.49
NYYLSTQTVLS [H199Y] : 7.27

Could you now look at the following sequence, please?
Query: State its pKd: NHYLSTQTVLS [WT]
Response: 6.55

Source: paper PMC7857580
